tested on: CP286; experiment: qHTS profiling for inhibitors of Plasmodium falciparum proliferation (AID 504749); also: nearly all actives have a fitted effect of over 60% in size; settings: P. falciparum in erythrocytes, SYBR Green DNA, 72 h; series mostly up to 28.7 µM
Records with an inconclusive call do not appear. Activity calls are given as the source filed them. Calls follow the shape of the dose curve; as a rule, active = well fitted inhibition curve with a large enough effect; inconclusive = small, poorly fitted or top-dose-only effect; inactive = flat fitted curve, though single readings scatter.
Outcome codes: YES for active, NO for inactive

INSERT INTO measurements (compound, answer_label) VALUES
  ('c1ccc2[nH]ccc2c1', 'NO'),
  ('Cc1c(Cn2ccnc2)c2ccccc2n1CCC(=O)O', 'NO'),
  ('CCCCOC(=O)c1ccc(N)cc1', 'NO'),
  ('COc1ccc(C(=O)N2CCN(CC(=O)N3CCOCC3)CC2)cc1', 'NO'),
  ('O=C(O)c1ccc(OCCCOc2ccc(C(=O)O)cc2)cc1', 'NO'),
  ('C[C@H]1COc2c(C3(N)CC3)c(F)cc3c(=O)c(C(=O)O)cn1c23', 'NO'),
  ('CC(CSC(=O)c1ccccc1)C(=O)N1C[C@@H](Sc2ccccc2)C[C@H]1C(=O)O (stereo partly drawn)', 'NO'),
  ('Cc1c(C)c2c(c(C)c1OC(=O)c1cccnc1)CC[C@@](C)(CCC[C@H](C)CCC[C@H](C)CCCC(C)C)O2', 'NO'),
  ('COc1cc(O)cc(O)c1', 'NO'),
  ('CC[N+](CC)(CC(=O)Nc1c(C)cccc1C)Cc1ccccc1', 'NO'),
  ('CCOC(=O)c1cccnc1', 'NO'),
  ('O=C1C(c2[nH]c3ccccc3c2O)=Nc2ccccc21', 'NO'),
  ('CC(=O)SC[C@@H](Cc1ccccc1)C(=O)NCC(=O)OCc1ccccc1', 'NO'),
  ('COC(=O)c1ccc(O)cc1', 'NO'),
  ('CCCCC1(COC(=O)CCC(=O)O)C(=O)N(c2ccccc2)N(c2ccccc2)C1=O', 'NO'),
  ('CCCCCCCCCCCCCCCCCCO', 'NO'),
  ('O=C(OOC(=O)c1ccccc1)c1ccccc1', 'NO'),
  ('CC(C)CCCC(C)CCCC(C)CCCCC(C)CCCC(C)CCCC(C)C (stereo not drawn)', 'NO'),
  ('CC(=O)N[C@@H](Cc1ccc(O)cc1)C(=O)O', 'NO'),
  ('CCCCCCCCCCOc1cc2c(=O)c(C(=O)OCC)c[nH]c2cc1OCC', 'YES'),
  ('CCCNC(C)(C)COC(=O)c1ccccc1', 'NO'),
  ('O=C(NCCCN1CCOCC1)c1ccc(Cl)cc1', 'NO'),
  ('C=CCNC(N)=S', 'NO'),
  ('Cc1ncc(CO)c(CN)c1O', 'NO'),
  ('CN1C(C)(C)CCCC1(C)C', 'NO'),
  ('CNc1c2c(nn1C)CCCC2', 'NO'),
  ('CC(C)(C)C(=O)OCOC(=O)[C@@H]1N2C(=O)[C@@H](NC(=O)[C@H](N)c3ccccc3)[C@H]2SC1(C)C', 'NO'),
  ('CCOC(=O)[C@H](CCc1ccccc1)N[C@@H](C)C(=O)N1CCC[C@H]1C(=O)O', 'NO'),
  ('O=C(O)Cc1cn(-c2ccccc2)nc1-c1ccc(Cl)cc1', 'NO'),
  ('Cc1c(C(=O)NCCO)[n+](=O)c2ccccc2n1[O-]', 'NO'),
  ('O=C(O)c1ccc[n+]([O-])c1', 'NO'),
  ('COC(=O)c1ccccc1C(=O)c1ccc(OCCN2CCCCC2)cc1', 'NO'),
  ('NC(=O)CCCCC1CCSS1 (stereo not drawn)', 'NO'),
  ('COc1nccnc1NS(=O)(=O)c1ccc(N)cc1', 'NO'),
  ('O=C(O)COC(=O)Cc1ccccc1Nc1c(Cl)cccc1Cl', 'NO'),
  ('NCC1CCC(C(=O)Oc2ccc(CCC(=O)O)cc2)CC1 (stereo not drawn)', 'NO'),
  ('CCOc1cc(NC(C)=O)ccc1C(=O)OC', 'NO'),
  ('O=c1[nH]c(=O)c2ccccc2o1', 'NO'),
  ('CCOC(N)=O', 'NO'),
  ('NC(=O)c1ccc([N+](=O)[O-])cc1Cl', 'NO'),
  ('CCc1cccc(CC)c1NC(=O)CN(CC(=O)O)CC(=O)O', 'NO'),
  ('Nc1ccc(C(=O)Oc2ccccc2)c(O)c1', 'NO'),
  ('Cc1ccc(C(C)C)c(O)c1', 'NO'),
  ('C=CCSCC1Nc2cc(Cl)c(S(N)(=O)=O)cc2S(=O)(=O)N1 (stereo not drawn)', 'NO'),
  ('Cc1onc(-c2ccccc2)c1-c1ccc(S(N)(=O)=O)cc1', 'NO'),
  ('C[C@@H]1CCC[C@H](C)N1', 'NO'),
  ('O=C(O)c1ccccc1OP(=O)(O)O', 'NO'),
  ('Cc1c(N(C)C)c(=O)n(-c2ccccc2)n1C', 'NO'),
  ('COc1ccc(O)cc1', 'NO'),
  ('O=C(O)CNC(=O)c1ccccc1I', 'NO'),
  ('O=C(CN1CCNCC1)NC1CCCCC1', 'NO'),
  ('Cc1cc(O)cc(C)c1Cl', 'NO'),
  ('O=C(O)c1ccccc1C(=O)Nc1ccc(S(=O)(=O)Nc2nccs2)cc1', 'NO');

* * *

assay: Cell Viability - LYMP2-002 (AID 977); details: LYMP2-002 lymphoblastoid cell viability, qHTS; series mostly up to 92.2 µM;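 also: compound exposure lasted 24 h at 37 °C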
Results filed as inconclusive are left out. Activity calls are given as the source filed them. The call rests on the fitted dose curve; in most records, active means well fitted cell-killing curve with a large enough effect; inconclusive means small, poorly fitted or top-dose-only effect; inactive means flat fitted curve, though single readings scatter.
Observation type: outcome

INSERT INTO assay_data (compound, reported_value) VALUES
  ('CCCCCC(N)=O', 'inactive'),
  ('Cc1cc(=O)[nH]c(=S)[nH]1', 'inactive'),
  ('Cc1cc(C)nc(NS(=O)(=O)c2ccc(N)cc2)n1', 'inactive'),
  ('O=C(O)CCCCC1CCSS1 (configuration not stated)', 'inactive'),
  ('Nc1ccc(S(=O)(=O)c2ccc(N)cc2)cc1', 'inactive'),
  ('CC(=O)NS(=O)(=O)c1ccc(N)cc1', 'inactive'),
  ('FC(F)(F)C(Cl)Br (configuration not stated)', 'inactive'),
  ('O=C(c1ccccc1)C(O)c1ccccc1 (configuration not stated)', 'inactive'),
  ('CCCC(O)C(CC)CO (configuration not stated)', 'inactive'),
  ('CCN(CC)C(=O)c1cccc(C)c1', 'inactive'),
  ('C=CCNC(N)=S', 'inactive'),
  ('CC1CC(OC(=O)c2ccccc2O)CC(C)(C)C1 (configuration not stated)', 'inactive');

* * *

tested on: PA-1; experiment: Primary qHTS to identify gynecologic anti-cancer compounds using libraries of approved drugs and bioactive compounds (AID 1345084); conditions: Gynecologic cancer cell panel viability, ATPlite luminescence, 48 h; series mostly up to 57.5 µM; also: nearly all actives have a fitted effect of over 55% in size
Results filed as inconclusive are left out. The source made the active and inactive calls. The call rests on the fitted dose curve; in most records, active means well fitted cell-killing curve with a large enough effect; inconclusive means small, poorly fitted or top-dose-only effect, or effect the other way; inactive means flat fitted curve, though single readings scatter.
Observation type: activity change, negative = cytotoxicity

INSERT INTO measurements (molecule, reported_value) VALUES
  ('NC(=O)NS(=O)(=O)c1ccc(N)cc1', 'inactive'),
  ('Cc1ccsc1/C=C/C1=NCCCN1C', 'inactive'),
  ('COC(=O)N/N=C/c1c[n+]([O-])c2ccccc2[n+]1[O-]', 'inactive'),
  ('COC(=O)c1ccccc1C(=O)c1ccc(OCCN2CCCCC2)cc1', 'inactive'),
  ('CC(=O)N1C[C@H](O)C[C@H]1C(=O)O', 'inactive'),
  ('CN1C(C)(C)CCCC1(C)C', 'inactive'),
  ('C[C@@H](N)C(=O)O', 'inactive'),
  ('Nc1ncnc(Nc2ccccc2)n1', 'inactive'),
  ('O=C(O)c1ccccc1C(=O)Nc1ccc(S(=O)(=O)Nc2nccs2)cc1', 'inactive'),
  ('Cc1onc(-c2ccccc2)c1-c1ccc(S(N)(=O)=O)cc1', 'inactive'),
  ('CC(C)=CCC/C(C)=C/CO', 'inactive'),
  ('NCc1ccc(S(N)(=O)=O)cc1', 'inactive'),
  ('Cc1ccsc1C(=CCCN1CCC[C@@H](C(=O)O)C1)c1sccc1C', 'inactive'),
  ('CC(=O)NCc1c(I)c(NC(C)=O)c(I)c(C(=O)O)c1I', 'inactive'),
  ('CCN1CC(CCN2CCOCC2)C(c2ccccc2)(c2ccccc2)C1=O (stereo unspecified)', 'inactive'),
  ('OCCN1C[C@H](O)[C@@H](O)[C@H](O)[C@H]1CO', 'inactive'),
  ('CC(=O)OCC(COC(C)=O)OC(C)=O', 'inactive'),
  ('COc1ccc(O)cc1', 'inactive'),
  ('CC1CCc2cc(F)cc3c(=O)c(C(=O)O)cn1c23 (stereo unspecified)', 'inactive'),
  ('O=C(O)COC(=O)Cc1ccccc1Nc1c(Cl)cccc1Cl', 'inactive'),
  ('O=c1[nH]cnc2nc[nH]c12', 'inactive'),
  ('O=C1C(c2[nH]c3ccccc3c2O)=Nc2ccccc21', 'inactive'),
  ('Cc1cc(-n2nc3ccc(Cl)cc3n2)c(O)c(C(C)(C)C)c1', 'inactive'),
  ('C[N+]1(C)CCCC(OC(=O)C(O)(c2ccccc2)c2ccccc2)C1 (stereo unspecified)', 'inactive'),
  ('COc1ccc(Cc2cnc(N)nc2N)cc1OC', 'inactive'),
  ('O=C(O)C(S)C(S)C(=O)O (stereo unspecified)', 'inactive'),
  ('Cc1[nH]c(C)c(Cl)c(=O)c1Cl', 'inactive'),
  ('NC(=O)CCCCC1CCSS1 (stereo unspecified)', 'inactive'),
  ('C[N+](C)(C)CC[N+]1(C)Cc2c(Cl)c(Cl)c(Cl)c(Cl)c2C1', 'inactive'),
  ('C=CCNC(N)=S', 'inactive'),
  ('CNc1c2c(nn1C)CCCC2', 'inactive'),
  ('Cc1cc(C)c(NC(=O)CN(CC(=O)O)CC(=O)O)c(C)c1Br', 'inactive'),
  ('Cc1c(Cn2ccnc2)c2ccccc2n1CCC(=O)O', 'inactive'),
  ('O=C(O)[C@@H]1[C@H]2C[C@H]3c4[nH]c5ccccc5c4CCN3C[C@@H]2CC[C@@H]1O', 'inactive'),
  ('CCOC(=O)[C@H](CCc1ccccc1)N[C@@H](C)C(=O)N1Cc2cc(OC)c(OC)cc2C[C@H]1C(=O)O', 'inactive'),
  ('CC(=O)N(CC(O)CN(C(C)=O)c1c(I)c(C(=O)NCC(O)CO)c(I)c(C(=O)NCC(O)CO)c1I)c1c(I)c(C(=O)NCC(O)CO)c(I)c(C(=O)NCC(O)CO)c1I (stereo unspecified)', 'inactive'),
  ('COc1ccc2cc(CCC(C)=O)ccc2c1', 'inactive'),
  ('O=C(OOC(=O)c1ccccc1)c1ccccc1', 'inactive'),
  ('CCCCC1(COC(=O)CCC(=O)O)C(=O)N(c2ccccc2)N(c2ccccc2)C1=O', 'inactive'),
  ('CC(CN(C)C)C(C)(O)Cc1ccc(Cl)cc1 (stereo unspecified)', 'inactive'),
  ('Cc1cc(O)cc(C)c1Cl', 'inactive'),
  ('CC(=O)N[C@@H](CC(C)C)C(=O)O', 'inactive'),
  ('NS(=O)(=O)c1ccc(C(=O)O)cc1', 'inactive'),
  ('C[C@@H]1CCC[C@H](C)N1', 'inactive'),
  ('COc1ccccc1Oc1c(NS(=O)(=O)c2ccc(C(C)(C)C)cc2)nc(-c2ncccn2)nc1OCCO', 'inactive'),
  ('CC(O)CCCCn1c(=O)c2c(ncn2C)n(C)c1=O (stereo unspecified)', 'inactive');
